Test system: SK-MEL-5
protocol_summary: NCI tumour cell line growth inhibition, 48 h
Active and inactive are the calls of the source. No stated cut-off is given here; in the data, active = GI50 up to about 1.1 µM and inactive = higher.
GI50 values, listed per item
observed_property: GI50

compound	endpoint_result
CC1CCOc2ccc(cc2)/C=N\c2ccc(cc2)CCc2ccc(cc2)/N=C\c2ccc(cc2)OCC1	> 100 µM (inactive)
N#CC(N)(C(=O)CCC(=O)Nc1cccc(Cl)c1)c1ccc(Cl)cc1 (stereo unspecified)	> 100 µM (inactive)
O=C1C=C(c2c(-c3ccccc3)[nH]c3ccccc23)C(=O)N1c1ccccc1	8.75 µM (inactive)
CCOC(=O)NC(C(=O)OCC)(N1CCN(c2cc3c(cc2F)c(=O)c(C(=O)O)cn3CC)CC1)C(F)(F)F (stereo unspecified)	> 100 µM (inactive)
O=c1cc(CSc2c(-c3ccccc3)c(=O)n(-c3ccccc3)c(=S)n2-c2ccccc2)[nH]c(=O)[nH]1	> 100 µM (inactive)
CC(C)CCC[C@@H](C)[C@H]1CCC2C3CC=C4C[C@@H](Oc5c6ccccc6nc6ccccc56)CCC4C3CCC21 (stereo partly specified)	> 50 µM (inactive)

----------
Test system: SNB-19
protocol_summary: NCI tumour cell line growth inhibition, 48 h
The source made the active and inactive calls. No stated cut-off is given here; in the data, active = GI50 up to about 1.1 µM and inactive = higher.
Some compounds, each annotated with its measured GI50.

compound	GI50
O=C1CCC(C(=O)O)C2=C1CCCC2 (stereo unspecified)	> 36.2 µM (inactive)
Cc1ncc2c(=O)c3c(oc2n1)c1ccccc1n3Cc1ccccc1	> 100 µM (inactive)
Cc1ccc(-[n+]2cc([O-])on2)cc1	> 100 µM (inactive)
C=CCOC(=O)N1[C@H]2C#C/C=C\C#C[C@]3(O)C(=O)C[C@H](C)[C@]24O[C@]43C2=CC(=O)C=CC21OC (stereo partly specified)	38.3 µM (inactive)
O=C(/C=C/c1ccsc1)c1ccco1	15.5 µM (inactive)
CSc1ncc2c(C#N)c3ccccn3c(=O)c2n1	> 100 µM (inactive)
C=CNC(=S)n1nc(-c2ccccc2NC(=O)C(F)(F)F)c(=O)n(C(=S)NC=C)c1=S	28.6 µM (inactive)
Nc1ccccc1N/C=C\C(=O)C(Cl)(Cl)Cl	34.1 µM (inactive)
COc1c(OC)c(OC)c2c(=O)cc(-c3ccc(OC(C)C)cc3)oc2c1OC	> 38.9 µM (inactive)
O=C(O)CCSC(=S)Nc1ccc([N+](=O)[O-])cc1	> 81.8 µM (inactive)
COc1ccccc1Cn1nc(OC)c2cc([N+](=O)[O-])ccc21	11.1 µM (inactive)

----------
System: A549
protocol_summary: NCI tumour cell line growth inhibition, 48 h
Where a name gives a salt, the structure may show the parent alone. Active and inactive are the calls of the source. Cut-off read from the data, not from the text of the source: active = GI50 up to about 1.1 µM and inactive = higher.
Outcomes: yes (1) for active, no (0) for inactive

compound	target_under_test	label
O=C(/C=C/c1cc(O)c(O)cc1O)OCCc1ccccc1	A549	no (0)
COc1ccc(N)c(C(=O)CCNC(C)=O)c1	A549	no (0)
N=C(N)c1csc([C@@H]2O[C@H](CO)[C@@H](O)[C@H]2O)n1	A549	no (0)
Cc1ccc(Nc2ccc(Nc3ccc(C)cc3)c3c2C(=O)c2c(O)ccc(O)c2C3=O)cc1	A549	no (0)
CC(=O)OCC1OC(NC(=S)Nn2c(-c3ccccc3)nc3ccccc3c2=O)C(OC(C)=O)C(OC(C)=O)C1OC(C)=O (stereo not given)	A549	no (0)
Clc1ccc(C2=NN(c3ccccc3)C3c4cc(Br)ccc4OCC23)cc1 (stereo not given)	A549	no (0)
COc1cccc2c1C(=O)c1c(O)c3c(c(O)c1C2=O)C[C@@](O)(C(=O)CO)C[C@@H]3OC1CC(N2CCOCC2C#N)C(O)C(C)O1 (stereo not given in full)	A549	yes (1)
C=CCN1C[C@H](C)N([C@@H](c2ccc(C(=O)N3CCCCC3)cc2)c2cccc(OC)c2)C[C@H]1C	A549	no (0)
CN(C)CCC=C1c2ccccc2C=Cc2ccccc21 [CYCLOBENZAPRINE HYDROCHLORIDE]	A549	no (0)
COc1cc(COC(=O)N[C@H](C(=O)O)C(C)(C)C)c([N+](=O)[O-])cc1OC	A549	no (0)
COC(CC1(CCNc2ccccc2)C(=O)N(COCC[Si](C)(C)C)c2ccccc21)OC (stereo not given)	A549	no (0)
Nc1ccccc1/N=N/c1c(S(=O)(=O)O)cc2cc(S(=O)(=O)O)cc(O)c2c1O	A549	no (0)
Cn1nc(S(N)(=O)=O)s/c1=N/S(=O)(=O)c1ccc(N)cc1	A549	no (0)
CCOc1ccc2c(c1)[n+]([O-])c(-c1ccccc1)c(N)[n+]2[O-]	A549	no (0)
COc1cccc2c(=O)oc(-c3ccccc3C)nc12	A549	no (0)
CNc1cc2c(c3ccccc13)C(CCl)CN2C(=O)c1cc2cc(OC)c(OC)c(OC)c2[nH]1 (stereo not given)	A549	yes (1)
S=c1[nH]c(Cl)cc2nc(Cl)cn12	A549	no (0)
Cl/C(=C\C=N\c1ccc(I)cc1)c1ccc2ccccc2c1	A549	no (0)
C=CN1CCN(c2ccccc2)P1(=O)Oc1ccccc1 (stereo not given)	A549	no (0)
Cc1cc(S(=O)(=O)[N-]/C(=N/S(=O)(=O)c2ccc(Cl)cc2)[n+]2ccc(N(C)C)cc2)c(SCC(=O)O)cc1Cl	A549	no (0)

----------
Tested on: HOP-62
protocol_summary: NCI tumour cell line growth inhibition, 48 h
The source made the active and inactive calls. Rule as the data show it: active = GI50 up to about 1.1 µM and inactive = higher.
Listing of recorded GI50 by entry.

molecule	GI50
COc1ccc(-c2c(-c3ccc(OC)cc3)n3c(=O)n(C)c(=O)n23)cc1	22.7 µM (inactive)
Cc1ncc2c(=O)c3c(oc2n1)c1ccccc1n3Cc1ccccc1	27.4 µM (inactive)
COc1ccc(Nc2nc3ccc(C(F)(F)F)cc3nc2C(=O)O)cc1	35.5 µM (inactive)
C/C=C(\C)CC/C=C/CO[Si](C)(C)C(C)(C)C	> 100 µM (inactive)
O=C(O)CCSC(=S)Nc1ccc([N+](=O)[O-])cc1	> 94.2 µM (inactive)
Nc1ccccc1/N=N/c1c(S(=O)(=O)O)cc2cc(S(=O)(=O)O)cc(O)c2c1O	> 100 µM (inactive)
N#Cc1ccc(/N=N/N2CCCC2)cc1	> 100 µM (inactive)
CN(/N=C/c1ccccn1)C1=NCCCN1	> 100 µM (inactive)
N#CC(N)(C(=O)CCC(=O)Nc1cccc(Cl)c1)c1ccc(Cl)cc1 (stereo unspecified)	> 100 µM (inactive)
c1ccc(CN2CCCN3CCN(CCCN(Cc4ccccc4)CC3)CC2)cc1	> 100 µM (inactive)
Cc1ccc2nc(C(C)C)c(=O)[nH]c2c1	17.2 µM (inactive)

----------
Test system: BT-549
protocol_summary: NCI tumour cell line growth inhibition, 48 h
Active and inactive are the calls of the source. No stated cut-off is given here; in the data, active = GI50 up to about 1.1 µM and inactive = higher.
Classes used: True (active), False (inactive)

compound	label
Cc1ncc2c(=O)c3c(oc2n1)c1ccccc1n3Cc1ccccc1	False
CC(=O)c1cccc(Nc2c3ccccc3nc3occc23)c1	False
O=C(NNC(=O)c1ccccc1O)c1cccs1	False
N#CC12C(=O)N3C(=NC(c4ccccc4)NC3c3ccccc3)C1(C#N)C(c1ccccc1)NC1=C2CCCC1 (stereo not given)	False
COc1cc(C2c3[nH]c4ccccc4c3[C@@H](Nc3ccc(C#N)cc3)[C@H]3COC(=O)N23)cc(OC)c1O (stereo not given in full)	True

----------
System: ACHN
protocol_summary: NCI tumour cell line growth inhibition, 48 h
Structures can show the parent of a compound that is named as a salt. Active and inactive are the calls of the source. Cut-off read from the data, not from the text of the source: active = GI50 up to about 1.1 µM and inactive = higher.
compounds and their reported GI50

compound	target_under_test	GI50
CN(C)CCC=C1c2ccccc2C=Cc2ccccc21 [CYCLOBENZAPRINE HYDROCHLORIDE]	ACHN	17.2 µM (inactive)
Nc1ncnc2oc(-c3cccs3)nc12	ACHN	> 100 µM (inactive)
CCCCc1c(N(C)C)c(OC(C)=O)c(-c2cn(C)c3ccccc23)oc1=O	ACHN	17.9 µM (inactive)
CC(=O)OCC1OC(NC(=S)Nn2c(-c3ccccc3)nc3ccccc3c2=O)C(OC(C)=O)C(OC(C)=O)C1OC(C)=O (centres undefined)	ACHN	> 100 µM (inactive)
Clc1ccc(COc2ccccc2/C=N/c2c(-c3ccco3)nc3ccccn23)c(Cl)c1	ACHN	> 100 µM (inactive)
COc1cc2c(c(OC)c1OC)C(=O)[C@@H](O)[C@H]2NC(N)=O	ACHN	> 100 µM (inactive)
CCN(CC)CCSc1nc(-c2c[nH]c3nc(C)ccc3c2=O)n[nH]1	ACHN	> 100 µM (inactive)
Cc1cc(S(=O)(=O)[N-]/C(=N/S(=O)(=O)c2ccc(Cl)cc2)[n+]2ccc(N(C)C)cc2)c(SCC(=O)O)cc1Cl	ACHN	> 100 µM (inactive)
Clc1ccccc1/C=C/c1nsc(/C=C/c2ccccc2Cl)n1	ACHN	50.4 µM (inactive)

----------
System: SK-OV-3
protocol_summary: NCI tumour cell line growth inhibition, 48 h
Active and inactive are the calls of the source. Cut-off read from the data, not from the text of the source: active = GI50 up to about 1.1 µM and inactive = higher.
Outcome codes: active, inactive

compound	label
CC1=C(C(=O)Nc2cccc(C(F)(F)F)c2)C(c2ccccc2F)C(C(=O)Nc2cccc(C(F)(F)F)c2)=C(C)N1	inactive
O=C1CCC(C(=O)O)C2=C1CCCC2 (stereo unspecified)	inactive
CCc1cccc(CC)c1NC(=O)/C(Cl)=C(/Cl)C(=O)O	inactive
COc1ccc2nc3n(c2c1)C(c1c(F)cccc1Cl)SC3 (stereo unspecified)	inactive
NS(=O)(=O)c1nnc(NC(=O)c2cccc([N+](=O)[O-])c2)s1	inactive
CC(O)CC(O)(C(F)(F)F)C(F)(F)F (stereo unspecified)	inactive
Cc1cccc(-c2cc(O)c3c(C)ccnc3n2)c1	active
CC(C)N1CN(C(C(=O)N[C@@H]2C(=O)N3C2SC(C)(C)C3C(=O)O)c2ccc(O)cc2)CSC1=S (stereo partly specified)	inactive
Cc1ccccc1-n1c(N)c(-c2nc3ccccc3[nH]2)sc1=S	inactive
N#C/C(=C/NC(=S)c1ccncc1)C(N)=O	inactive
CC(C)c1cc(C(C)C)c(S(=O)(=O)N=[N+]=[N-])c(C(C)C)c1	inactive
